Catalogue of pEC50 values
Tested on: Hepatitis C virus
protocolDetails: microbe, parasite or virus in culture
Schema: pEC50 number; meaning minus log10 of the concentration expressed in molar units.

Reference set (3 entries):
compound	pEC50
O=C(Cc1cccs1)Nc1cccc(-c2ccc3nnc(-c4cccnc4)n3n2)c1	6.12
Cc1nc2c(NCc3cccc(S(C)(=O)=O)c3)nccn2c1-c1ccc(O)c(F)c1	7.00
COc1cc(-c2cnc3c(N4CCOCC4)snc3c2)cc(OC)c1OC	5.60

Ask: So what does the record say about pEC50 for CC(C)S(=O)(=O)n1c(N)nc2ccc(/C(=N/O)c3ccccc3)cc21 [ENVIROXIME] ?
Reply: 6.70

====

protocolDetails: in vitro
studyConditions: human, ccrf-cem
quantityKind: CC50

Ask: So what does the record say about CC50 for O=C1Cc2c([nH]c3ccc([N+](=O)[O-])cc23)-c2ccccc2N1 [ALSTERPAULLONE] ?
Reply: > 1000 nM

====

Tested on: Hepatitis B virus
protocolDetails: Antiviral activity against HBV infected in human HepG2-hNTCP cells
Assay type: functional, organism-based
quantityKind: IC50

Ask: So what does the record say about IC50 for Fc1ccc(N2CCCCC2)c(NC(=S)c2ccncc2)c1 ?
Reply: 330 nM

====

testSystem: Receptor tyrosine-protein kinase erbB-2 (Homo sapiens, UniProt P04626)
Sequence (P04626 whole entry): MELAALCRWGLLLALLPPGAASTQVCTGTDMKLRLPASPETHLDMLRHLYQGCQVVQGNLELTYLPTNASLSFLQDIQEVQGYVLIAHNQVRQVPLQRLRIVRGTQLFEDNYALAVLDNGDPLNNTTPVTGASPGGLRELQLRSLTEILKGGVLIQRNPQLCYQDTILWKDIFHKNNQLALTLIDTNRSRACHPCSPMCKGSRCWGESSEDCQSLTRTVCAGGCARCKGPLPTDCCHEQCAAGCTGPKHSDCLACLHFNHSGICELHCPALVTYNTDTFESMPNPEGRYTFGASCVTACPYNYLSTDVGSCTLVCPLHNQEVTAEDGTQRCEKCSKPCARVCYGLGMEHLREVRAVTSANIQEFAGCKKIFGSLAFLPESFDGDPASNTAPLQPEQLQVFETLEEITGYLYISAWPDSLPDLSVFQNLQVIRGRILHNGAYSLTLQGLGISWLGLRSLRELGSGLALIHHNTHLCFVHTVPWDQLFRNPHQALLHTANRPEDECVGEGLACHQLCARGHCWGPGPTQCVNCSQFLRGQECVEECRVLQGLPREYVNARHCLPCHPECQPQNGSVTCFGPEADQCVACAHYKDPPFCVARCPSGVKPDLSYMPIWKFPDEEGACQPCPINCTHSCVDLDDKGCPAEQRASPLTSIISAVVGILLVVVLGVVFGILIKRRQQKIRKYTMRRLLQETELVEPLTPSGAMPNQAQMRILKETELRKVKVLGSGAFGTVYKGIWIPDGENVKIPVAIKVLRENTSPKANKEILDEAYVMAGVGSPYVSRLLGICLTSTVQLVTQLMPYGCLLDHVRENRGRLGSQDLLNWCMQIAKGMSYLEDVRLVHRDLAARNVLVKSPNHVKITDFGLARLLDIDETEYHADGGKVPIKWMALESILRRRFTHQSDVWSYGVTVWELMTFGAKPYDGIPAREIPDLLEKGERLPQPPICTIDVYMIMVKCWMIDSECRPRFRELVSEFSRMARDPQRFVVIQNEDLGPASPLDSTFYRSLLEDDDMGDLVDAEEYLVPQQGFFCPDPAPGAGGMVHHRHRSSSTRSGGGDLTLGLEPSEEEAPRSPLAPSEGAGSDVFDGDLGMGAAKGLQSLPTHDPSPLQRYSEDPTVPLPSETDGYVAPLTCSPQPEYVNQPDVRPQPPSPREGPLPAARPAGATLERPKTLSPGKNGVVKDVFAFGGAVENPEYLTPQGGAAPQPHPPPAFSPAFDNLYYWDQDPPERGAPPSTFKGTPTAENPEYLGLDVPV
protocolDetails: Inhibition of HER2/ErbB-2 (unknown origin)
quantityKind: IC50

Ask: So what does the record say about IC50 for CC(C)(C)c1cc(/C=C(\C#N)C(N)=S)cc(C(C)(C)C)c1O ?
Reply: 1000 nM

====

protocolDetails: Cytotoxicity against mouse NIH3T3 cells
Type: toxicity, cell-based
quantityKind: CC50

Ask: So what does the record say about CC50 for CC(C)=CCC[C@](C)(O)C1CC[C@]2(C)[C@@H]1[C@H](O)C[C@@H]1[C@@]3(C)CC[C@H](O[C@@H]4O[C@H](CO)[C@@H](O)[C@H](O)[C@H]4O[C@@H]4O[C@H](CO)[C@@H](O)[C@H](O)[C@H]4O)C(C)(C)[C@@H]3CC[C@]12C (stereo partly specified) ?
Reply: > 50 µM

====

testSystem: Phosphatidylinositol 4-phosphate 3-kinase C2 domain-containing subunit beta (Homo sapiens, UniProt O00750)
Sequence (O00750 whole entry, the tested form may be a part): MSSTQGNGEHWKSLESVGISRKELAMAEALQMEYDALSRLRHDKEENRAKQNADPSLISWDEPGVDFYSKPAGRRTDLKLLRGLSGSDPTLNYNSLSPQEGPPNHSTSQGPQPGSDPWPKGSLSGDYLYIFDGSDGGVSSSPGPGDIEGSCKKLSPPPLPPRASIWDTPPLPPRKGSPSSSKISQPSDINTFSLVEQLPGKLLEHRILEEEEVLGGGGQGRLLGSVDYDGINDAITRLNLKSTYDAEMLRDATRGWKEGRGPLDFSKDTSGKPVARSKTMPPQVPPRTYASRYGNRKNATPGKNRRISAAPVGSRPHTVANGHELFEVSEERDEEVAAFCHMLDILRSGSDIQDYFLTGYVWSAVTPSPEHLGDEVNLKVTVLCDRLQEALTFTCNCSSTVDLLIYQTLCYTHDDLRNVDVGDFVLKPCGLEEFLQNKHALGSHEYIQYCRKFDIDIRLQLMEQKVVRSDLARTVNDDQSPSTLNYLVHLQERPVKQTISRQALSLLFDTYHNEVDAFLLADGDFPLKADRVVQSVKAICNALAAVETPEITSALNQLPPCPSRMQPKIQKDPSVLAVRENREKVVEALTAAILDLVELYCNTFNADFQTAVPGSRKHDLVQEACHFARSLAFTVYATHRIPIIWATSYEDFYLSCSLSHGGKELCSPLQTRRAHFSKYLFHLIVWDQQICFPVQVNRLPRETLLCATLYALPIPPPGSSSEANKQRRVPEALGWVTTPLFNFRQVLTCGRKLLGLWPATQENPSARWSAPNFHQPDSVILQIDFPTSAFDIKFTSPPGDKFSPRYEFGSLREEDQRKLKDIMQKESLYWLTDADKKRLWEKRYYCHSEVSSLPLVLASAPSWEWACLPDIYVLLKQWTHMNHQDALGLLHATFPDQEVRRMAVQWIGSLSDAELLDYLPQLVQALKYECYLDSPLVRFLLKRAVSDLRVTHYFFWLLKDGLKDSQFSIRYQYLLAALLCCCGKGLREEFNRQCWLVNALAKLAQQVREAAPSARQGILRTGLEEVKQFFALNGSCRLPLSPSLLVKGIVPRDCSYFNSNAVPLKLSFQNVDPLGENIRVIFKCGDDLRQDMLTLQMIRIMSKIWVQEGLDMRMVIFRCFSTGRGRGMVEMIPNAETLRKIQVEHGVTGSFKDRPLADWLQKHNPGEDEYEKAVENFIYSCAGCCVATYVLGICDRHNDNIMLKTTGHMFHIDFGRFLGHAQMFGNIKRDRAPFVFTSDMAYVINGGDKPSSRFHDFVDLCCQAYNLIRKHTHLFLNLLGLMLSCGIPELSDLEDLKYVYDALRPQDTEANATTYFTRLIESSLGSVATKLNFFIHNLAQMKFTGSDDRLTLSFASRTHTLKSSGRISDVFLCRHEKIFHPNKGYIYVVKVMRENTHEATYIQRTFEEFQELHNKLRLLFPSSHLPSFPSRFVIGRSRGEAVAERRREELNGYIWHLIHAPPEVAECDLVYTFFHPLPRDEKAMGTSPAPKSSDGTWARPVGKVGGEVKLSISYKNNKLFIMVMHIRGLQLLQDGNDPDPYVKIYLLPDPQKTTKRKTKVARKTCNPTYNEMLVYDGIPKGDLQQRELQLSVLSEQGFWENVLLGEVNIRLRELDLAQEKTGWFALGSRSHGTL
protocolDetails: Inhibition of PIK3C2beta (unknown origin)
quantityKind: IC50 (nM)
Just the number in nM, nothing appended.

Ask: So what does the record say about IC50 for O=C(Cc1cccs1)Nc1cccc(-c2ccc3nnc(-c4cccnc4)n3n2)c1 ?
Reply: 430

====

Test system: Influenza A virus
protocolDetails: microbe, parasite or virus in culture
studyConditions: H1N1v, A549
quantityKind: EC50
Answers without a unit are incomplete; give the number and then its unit.

Ask: So what does the record say about EC50 for N#CC(=C(/N)Sc1ccccc1N)/C(C#N)=C(\N)Sc1ccccc1N ?
Reply: 1200 nM

====

protocolDetails: in vitro
studyConditions: human, MDM cells
quantityKind: CC50 (µM)
Just the number in µM, nothing appended.

Ask: So what does the record say about CC50 for CC(C)[C@H](CO)Nc1nc(Nc2cccc(Cl)c2)c2ncn(C(C)C)c2n1 ?
Reply: 18.7

====

protocolDetails: Cytotoxicity against human HCE cells
Format: toxicity, cell-based
quantityKind: CC50 (µM)
Just the number in µM, nothing appended.

Ask: So what does the record say about CC50 for O=C(NCCCNc1nc(Nc2cccc(NC(=O)N3CCCC3)c2)ncc1I)c1cccs1 [BX-795] ?
Reply: 46

====

Tested on: Nipah virus
protocolDetails: microbe, parasite or virus in culture
Type: functional, organism-based, HEK293T
studyConditions: Henipavirus nipahense, HEK-293T
quantityKind: pEC50
Schema: pEC50 number; meaning minus log10 of the concentration expressed in molar units.

Ask: Give Nipah virus pEC50 for NCC(=O)Nc1ccc(-n2nc(C(F)(F)F)cc2-c2ccc3c(ccc4ccccc43)c2)cc1
Reply: 6.52

====

protocolDetails: Cytotoxicity against human NCI-H1666 cells
Assay type: toxicity, cell-based
quantityKind: CC50

Ask: So what does the record say about CC50 for NC1(c2ccc(-c3nc4ccn5c(=O)[nH]nc5c4cc3-c3ccccc3)cc2)CCC1 [MK-2206] ?
Reply: 58.5 µM

====

protocolDetails: Cytotoxicity against MDDC cells (unknown origin)
Type: toxicity, cell-based
quantityKind: CC50

Ask: So what does the record say about CC50 for COc1cc(-c2cnc3c(N4C[C@@H](C)O[C@@H](C)C4)snc3c2)ccc1N ?
Reply: > 20 µM

====

protocolDetails: in vitro
studyConditions: human, sertoli cell
quantityKind: CC50

Ask: So what does the record say about CC50 for Nc1nc(Nc2ccc3c(c2)CC[C@@H](N2CCCC2)CC3)nn1-c1cc2c(nn1)-c1ccccc1CCC2 ?
Reply: > 10 µM

====

Test system: Hepatitis C virus
protocolDetails: microbe, parasite or virus in culture
studyConditions: subtype 1b
quantityKind: EC50 (µM)
Just the number in µM, nothing appended.

Ask: So what does the record say about EC50 for CC(=O)NCCNc1cc(Cl)nn2c(-c3cccc(S(=O)(=O)N(C)C)c3)c(C)nc12 ?
Reply: 0.08

Ask: So what does the record say about EC50 for CCNS(=O)(=O)c1cc(-c2c(C)nc3c(NCc4ccnc(CC)c4)cc(Cl)nn23)ccc1OO ?
Reply: 0.029

====

Test system: Human rhinovirus sp.
protocolDetails: Antiviral activity against RV
Type: functional, organism-based, Enterovirus
quantityKind: pEC50
Schema: pEC50 number; meaning minus log10 of the concentration expressed in molar units.

Ask: Give Human rhinovirus sp. pEC50 for O=C(Cc1cccs1)Nc1cccc(-c2ccc3nnc(-c4cccnc4)n3n2)c1
Reply: 7.30

====

protocolDetails: in vitro
studyConditions: human, PBMC
quantityKind: CC50

Ask: So what does the record say about CC50 for N#CC[C@H](C1CCCC1)n1cc(-c2ncnc3[nH]ccc23)cn1 [RUXOLITINIB] ?
Reply: > 100 µM

====

Test system: Influenza A virus
protocolDetails: microbe, parasite or virus in culture
Format: functional, organism-based
studyConditions: H7N9
quantityKind: EC50 (µM)
Just the number in µM, nothing appended.

Ask: So what does the record say about EC50 for CC1=C(C)C2NC(=O)C(CN3C(=S)N([C@@H](C)c4ccccc4)C(=O)C3C3CC3)C=C2C=C1 (stereo partly specified) ?
Reply: 20

====

protocolDetails: in vitro
studyConditions: human, huh7.5.1
quantityKind: CC50

Ask: So what does the record say about CC50 for COc1ccc(-c2ccc3nsc(N4C[C@@H](C)O[C@@H](C)C4)c3n2)cc1OC ?
Reply: > 10 µM

Ask: So what does the record say about CC50 for COc1ccc(-c2cnc3c(OC(C)C)snc3c2)cc1OC ?
Reply: > 10 µM

====

Test system: Human coronavirus 229E
protocolDetails: microbe, parasite or virus in culture
quantityKind: pEC50
Schema: pEC50 number; meaning minus log10 of the concentration expressed in molar units.

Ask: Give Human coronavirus 229E pEC50 for CN1CCN(CCOc2cc(OC3CCOCC3)c3c(Nc4c(Cl)ccc5c4OCO5)ncnc3c2)CC1
Reply: 5.62

====

protocolDetails: in vitro
studyConditions: human, hela
quantityKind: CC50

Reference set (2 entries):
smilesText	CC50
CCNS(=O)(=O)c1cc(-c2c(C)nc3c(NCc4ccnc(CC)c4)cc(Cl)nn23)ccc1OO	18.3 µM
CC(=O)NCCNc1cc(Cl)nn2c(-c3cccc(S(=O)(=O)N(C)C)c3)c(C)nc12	> 50 µM

Note: attention shifts to another entry.
Ask: So what does the record say about CC50 for CN1CCCN(C(=O)c2cccc(-c3ccc(/C=C4/C(=O)Nc5ccc(Cl)cc54)o3)c2)CC1 ?
Reply: > 8 µM

====

testSystem: AP2-associated protein kinase 1 (Homo sapiens)
Sequence (Q2M2I8 whole entry): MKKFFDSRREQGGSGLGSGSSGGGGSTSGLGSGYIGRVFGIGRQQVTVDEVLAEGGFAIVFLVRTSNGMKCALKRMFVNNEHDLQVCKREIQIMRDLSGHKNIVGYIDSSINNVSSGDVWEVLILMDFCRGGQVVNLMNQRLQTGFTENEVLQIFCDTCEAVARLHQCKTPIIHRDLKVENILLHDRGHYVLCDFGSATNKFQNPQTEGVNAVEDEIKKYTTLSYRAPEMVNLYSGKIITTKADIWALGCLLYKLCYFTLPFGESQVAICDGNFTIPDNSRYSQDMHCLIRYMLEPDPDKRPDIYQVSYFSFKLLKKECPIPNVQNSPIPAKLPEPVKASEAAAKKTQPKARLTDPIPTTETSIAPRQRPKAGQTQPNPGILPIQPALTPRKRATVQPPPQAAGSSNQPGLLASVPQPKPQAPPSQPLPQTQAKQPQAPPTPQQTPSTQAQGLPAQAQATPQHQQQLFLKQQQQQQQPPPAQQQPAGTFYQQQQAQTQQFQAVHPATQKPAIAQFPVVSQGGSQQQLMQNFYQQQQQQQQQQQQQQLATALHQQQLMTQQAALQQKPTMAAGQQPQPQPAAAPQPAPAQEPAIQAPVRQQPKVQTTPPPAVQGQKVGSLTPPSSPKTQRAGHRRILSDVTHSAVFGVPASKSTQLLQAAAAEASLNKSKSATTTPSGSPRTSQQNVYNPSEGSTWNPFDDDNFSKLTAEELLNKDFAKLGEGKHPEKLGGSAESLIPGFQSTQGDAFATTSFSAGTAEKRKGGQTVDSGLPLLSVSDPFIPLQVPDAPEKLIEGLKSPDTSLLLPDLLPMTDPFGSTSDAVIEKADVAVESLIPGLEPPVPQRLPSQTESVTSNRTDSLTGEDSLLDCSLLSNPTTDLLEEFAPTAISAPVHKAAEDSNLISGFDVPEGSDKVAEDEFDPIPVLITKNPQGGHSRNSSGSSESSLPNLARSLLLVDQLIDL
quantityKind: Kd (µM)
Just the number in µM, nothing appended.

Ask: So what does the record say about Kd for CC[C@@H]1CN(C(=O)NCC(F)(F)F)C[C@@H]1c1cnc2cnc3[nH]ccc3n12 ?
Reply: 9.9

====

protocolDetails: Cytotoxicity against osteoblast cells (unknown origin)
Format: toxicity, cell-based, Calvarial osteoblast
quantityKind: CC50

Ask: So what does the record say about CC50 for CCS(=O)(=O)N1CC(CC#N)(n2cc(-c3ncnc4[nH]ccc34)cn2)C1 [BARICITINIB] ?
Reply: > 50 µM

====

protocolDetails: in vitro
studyConditions: dog, mdck
quantityKind: CC50

Ask: So what does the record say about CC50 for N#CC(=C(/N)Sc1ccccc1N)/C(C#N)=C(\N)Sc1ccccc1N ?
Reply: > 50 µM

====

protocolDetails: Cytotoxicity against pig PK-15 cells
Type: toxicity, cell-based, Sus scrofa
quantityKind: CC50

Ask: So what does the record say about CC50 for CC(C)(C)c1cc(C=C(C#N)C#N)cc(C(C)(C)C)c1O ?
Reply: > 6 µM

====

protocolDetails: in vitro
studyConditions: chlorocebus sabaeus, vero c1008
quantityKind: CC50

Ask: So what does the record say about CC50 for CCc1nc(C(N)=O)c(Nc2ccc(N3CCC(N4CCN(C)CC4)CC3)c(OC)c2)nc1NC1CCOCC1 ?
Reply: > 500 nM
